These data points were gathered from patent US10487093B2.

Here we list compounds with their recorded MIC when tested on E. coli NCTC 13476.

Worked set:
COc1ccc2ccc(=O)n(CCN[C@H]3CC[C@H]4[C@H](C3)OC(=O)N4c3ccc4c(n3)NC(=O)CS4)c2n1 = < 1 µg/mL
COc1ccc2ccc(=O)n(CCCN[C@@H]3CC[C@@H]4[C@@H](C3)OC(=O)N4c3ccc4c(n3)NC(=O)CO4)c2n1 = < 1 µg/mL

Here is another compound to look at.
Exam item: Find MIC for N#Cc1ccc2ccc(=O)n(CCN[C@H]3CC[C@H]4[C@H](C3)OC(=O)N4c3ccc4c(n3)NC(=O)CO4)c2c1 on E. coli NCTC 13476 and write it down.
Marked response: < 1 µg/mL

----------
- Tested on: Enterobacter cloacae NCTC 13406
- ASSAY PROCEDURE: MIC, broth microdilution (CLSI) versus planktonic bacteria
- Assay type: cell-based
- EXPERIMENTAL SETUP: NCTC13406; Enterobacter cloacae NCTC 13406; 16-20 h; mode of three independent experiments; read-out: MIC, Ecl NCTC 13406
MEASURED ATTRIBUTE: MIC

Worked set:
CN(C)CCOc1ccc2ccc(=O)n(CCN[C@@H]3CC[C@@H]4[C@@H](C3)OC(=O)N4c3ccc4c(n3)NC(=O)CO4)c2c1 = 10 to 100 µg/mL
NS(=O)(=O)c1ccc(Oc2ccc3ccc(=O)n(CCN[C@@H]4CC[C@@H]5[C@@H](C4)OC(=O)N5c4ccc5c(n4)NC(=O)CO5)c3n2)cc1 = 10 to 100 µg/mL
O=C1COc2ccc(N3C(=O)O[C@H]4C[C@@H](NCCn5c(=O)ccc6nccnc65)CC[C@@H]43)nc2N1 = 1 to 10 µg/mL
O=C1COc2cnc(N3C(=O)O[C@@H]4C[C@H](NCCn5c(=O)cnc6cc(F)c(F)cc65)CC[C@H]43)nc2N1 = < 1 µg/mL
N#Cc1ccc2ccc(=O)n(CCN[C@H]3CC[C@H]4[C@@H](C3)OC(=O)N4c3ccc4c(n3)NC(=O)CO4)c2n1 = 1 to 10 µg/mL

Here is another compound to look at.
Exam item: For the compound COc1ccc2ncc(=O)n(CCN[C@H]3CCC4C(C3)OC(=O)N4c3ccc4c(n3)NC(=O)CO4)c2n1 (stereo in doubt) , give its reported MIC.
Marked response: < 1 µg/mL

----------
Property: MIC; scope: individual compounds
- System: strains of Prevotella bivia
- ASSAY PROCEDURE: MIC against anaerobes, agar dilution (CLSI), clinical isolates
- Type: cell-based
- EXPERIMENTAL SETUP: Prevotella bivia strain 9

Worked set:
Cc1ccc2ncc(=O)n(CCN[C@H]3CC[C@H]4[C@@H](C3)OC(=O)N4c3ccc4c(n3)NC(=O)CO4)c2c1 = < 1 µg/mL
Cc1ncc([N+](=O)[O-])n1CCO [MTZ, metronidazole, reference compound] = 1 to 4 µg/mL
COc1ccc2ncc(=O)n(CCN[C@@H]3CC[C@@H]4[C@@H](C3)OC(=O)N4c3ccc4c(n3)NC(=O)CO4)c2c1 = < 1 µg/mL

Here is another compound to look at.
Exam item: Find MIC for CN[C@H](CC(C)C)C(=O)N[C@H]1C(=O)N[C@@H](CC(N)=O)C(=O)N[C@H]2C(=O)N[C@H]3C(=O)N[C@H](C(=O)N[C@H](C(=O)O)c4cc(O)cc(O)c4-c4cc3ccc4O)[C@H](O)c3ccc(c(Cl)c3)Oc3cc2cc(c3O[C@@H]2O[C@H](CO)[C@@H](O)[C@H](O)[C@H]2O[C@H]2C[C@](C)(N)[C@H](O)[C@H](C)O2)Oc2ccc(cc2Cl)[C@H]1O [VAN, vancomycin, reference compound] on strains of Prevotella bivia and write it down.
Marked response: > 64 µg/mL

----------
- Test system: strains of Prevotella melaninogenica
- ASSAY PROCEDURE: MIC against anaerobes, agar dilution (CLSI), clinical isolates
- Format: cell-based
- EXPERIMENTAL SETUP: Prevotella melaninogenica strain 8
MEASURED ATTRIBUTE: MIC

Cc1ncc([N+](=O)[O-])n1CCO [MTZ, metronidazole, reference compound] = < 1 µg/mL

Exam item: Find MIC for Cc1ccc2ncc(=O)n(CCN[C@H]3CC[C@H]4[C@@H](C3)OC(=O)N4c3ccc4c(n3)NC(=O)CO4)c2c1 on strains of Prevotella melaninogenica and write it down.
Marked response: < 1 µg/mL

Exam item: Find MIC for COc1ccc2ncc(=O)n(CCN[C@@H]3CC[C@@H]4[C@@H](C3)OC(=O)N4c3ccc4c(n3)NC(=O)CO4)c2c1 on strains of Prevotella melaninogenica and write it down.
Marked response: < 1 µg/mL

Exam item: Find MIC for CN[C@H](CC(C)C)C(=O)N[C@H]1C(=O)N[C@@H](CC(N)=O)C(=O)N[C@H]2C(=O)N[C@H]3C(=O)N[C@H](C(=O)N[C@H](C(=O)O)c4cc(O)cc(O)c4-c4cc3ccc4O)[C@H](O)c3ccc(c(Cl)c3)Oc3cc2cc(c3O[C@@H]2O[C@H](CO)[C@@H](O)[C@H](O)[C@H]2O[C@H]2C[C@](C)(N)[C@H](O)[C@H](C)O2)Oc2ccc(cc2Cl)[C@H]1O [VAN, vancomycin, reference compound] on strains of Prevotella melaninogenica and write it down.
Marked response: 4 to 16 µg/mL

----------
Here we list compounds with their recorded MIC when tested on E. coli NCTC 13476.

N#Cc1ccc2ccc(=O)n(CCCN[C@@H]3CC[C@@H]4[C@@H](C3)OC(=O)N4c3ccc4c(n3)NC(=O)CO4)c2c1 = < 1 µg/mL

Exam item: Find MIC for O=C1COc2ccc(N3C(=O)O[C@H]4C[C@@H](NCCn5c(=O)ccc6ncc(OC(F)F)cc65)CC[C@@H]43)nc2N1 on E. coli NCTC 13476 and write it down.
Marked response: 1 to 10 µg/mL

Exam item: Find MIC for O=C1COc2ccc(N3C(=O)O[C@@H]4C[C@H](NCCCn5c(=O)cnc6cc(F)c(F)cc65)CC[C@H]43)nc2N1 on E. coli NCTC 13476 and write it down.
Marked response: < 1 µg/mL

----------
- Tested on: Haemophilus influenzae ATCC 49247
- ASSAY PROCEDURE: MIC, broth microdilution (CLSI) versus planktonic bacteria
- Assay type: cell-based
- EXPERIMENTAL SETUP: ATCC49247; Haemophilus influenzae ATCC 49247; 16-20 h; mode of three independent experiments; read-out: MIC, Hi ATCC 49247
MEASURED ATTRIBUTE: MIC

Worked set:
O=C1COc2ccc(N3C(=O)O[C@@H]4C[C@@H](NCCn5c(=O)ccc6ccc(Oc7cccnc7)nc65)CC[C@@H]43)nc2N1 [Compound 12] = 1 to 10 mg/L
COc1cnc2ccc(=O)n(CCN[C@@H]3CC[C@@H]4[C@@H](C3)OC(=O)N4c3ccc4c(n3)NC(=O)CO4)c2n1 [Compound 87] = < 1 mg/L

Exam item: For the compound O=C1COc2ccc(N3C(=O)O[C@@H]4C[C@@H](NCCn5c(=O)ccc6ccc(OCCO)nc65)CC[C@@H]43)nc2N1 [Compound 6] , give its reported MIC.
Marked response: 1 to 10 mg/L

Exam item: For the compound O=C1COc2cnc(N3C(=O)O[C@@H]4C[C@H](NCCn5c(=O)cnc6cc(F)c(F)cc65)CC[C@H]43)nc2N1 [Compound 38] , give its reported MIC.
Marked response: < 1 mg/L

Exam item: For the compound O=C1COc2ccc(N3C(=O)O[C@@H]4C[C@H](NCCn5c(=O)cnc6ccc(F)cc65)CC[C@H]43)nc2N1 [Compound 86] , give its reported MIC.
Marked response: < 1 mg/L

Exam item: For the compound O=C1COc2ccc(N3C(=O)O[C@H]4C[C@@H](NCCn5c(=O)cnc6cc(F)c(F)cc65)CC[C@@H]43)nc2N1 [Compound 34] , give its reported MIC.
Marked response: < 1 mg/L

Exam item: For the compound COc1ncc2ccc(=O)n(CCN[C@@H]3CC[C@@H]4[C@@H](C3)OC(=O)N4c3ncc4c(n3)NC(=O)CO4)c2n1 [Compound 33] , give its reported MIC.
Marked response: 1 to 10 mg/L

Exam item: For the compound N#Cc1ccc2ccc(=O)n(CCCN[C@H]3CC[C@H]4[C@H](C3)OC(=O)N4c3ccc4c(n3)NC(=O)CO4)c2c1 [Compound 60] , give its reported MIC.
Marked response: < 1 mg/L

Exam item: For the compound COc1ccc2ccc(=O)n(CCN[C@H]3CC[C@H]4[C@@H](C3)OC(=O)N4c3ncc4c(n3)NC(=O)CO4)c2n1 [Compound 16] , give its reported MIC.
Marked response: < 1 mg/L

Exam item: For the compound N#Cc1ccc2ccc(=O)n(CCN[C@@H]3CC[C@@H]4[C@@H](C3)OC(=O)N4c3ccc4c(n3)NC(=O)CO4)c2c1 [Compound 59] , give its reported MIC.
Marked response: < 1 mg/L

Exam item: For the compound N#Cc1ccc2ncc(=O)n(CCN[C@H]3CC[C@H]4[C@H](C3)OC(=O)N4c3ccc4c(n3)NC(=O)CO4)c2c1 [Compound 64] , give its reported MIC.
Marked response: < 1 mg/L

Exam item: For the compound N#Cc1ccc2ccc(=O)n(CCN[C@H]3CC[C@H]4[C@H](C3)OC(=O)N4c3ccc4c(n3)NC(=O)CO4)c2c1 [Compound 56] , give its reported MIC.
Marked response: < 1 mg/L

Exam item: For the compound COc1ncc2ccc(=O)n(CCN[C@@H]3CC[C@@H]4[C@@H](C3)OC(=O)N4c3ccc4c(n3)NC(=O)CO4)c2n1 [Compound 2] , give its reported MIC.
Marked response: < 1 mg/L
